Source listed as ChEMBL document CHEMBL3988442.

subject.of.test: Ubiquitin-activating enzyme e1, putative (Leishmania donovani (strain BPK282A1))
assay.procedure: Leishmania donovani Ubiquitin Activating Enzyme (LdE1)
Format: functional
Design: scale not given: direction of the effect not stated beside the values
condition.info: 30 µM
Potency and affinity values are given separately.
Percent Effect for assorted compounds
Give the value, in units of %, as a plain number.

Worked examples follow.
# compound, unit.of.measurement, test.value
data = [
    ("COc1cc(C)nc(N2CCN(C(=O)CN(C)C3CC3)CC2)n1", "%", 7.69),
    ("COc1cc(N2CCCC(c3nccn3Cc3cscn3)C2)nc(N)n1 (stereo not given)", "%", 5.41),
    ("Cc1cccnc1CNCC1(O)CCCN(CC2CCCCC2)C1=O (stereo not given)", "%", 0),
]

// Percent Effect (Ubiquitin-activating enzyme e1, putative (Leishmania donovani (strain BPK282A1))) for "Cc1cccc(CN2C(=O)CCC23CCN(c2ncc(F)cn2)CC3)n1" = 16.9

// Percent Effect (Ubiquitin-activating enzyme e1, putative (Leishmania donovani (strain BPK282A1))) for CC(C)C(=O)N1CCC2(CCCN(CCOc3ccccc3)C2)C1 (stereo not given) = 1.3

// Percent Effect (Ubiquitin-activating enzyme e1, putative (Leishmania donovani (strain BPK282A1))) for "COCCN1C[C@H]2[C@@H](C1)N(C(=O)c1cccs1)CC[C@H]2OC" = -108

====

System: Trypanosoma cruzi
assay.procedure: Trypanosoma cruzi phosphomannomutase and mannose-1-phosphate guanylyltransferase assay
Format: functional
Parameters: scale not given: direction of the effect not stated beside the values
condition.info: 10 µM
quantity.measured: Percent Effect (%)
Give the value, in units of %, as a plain number.

Worked examples follow.
# molecule, unit.of.measurement, test.value
records = [
    ("Cn1ncc(NCc2cc(F)cc(F)c2)c(Cl)c1=O", "%", -3.01),
    ("CC(C)CNc1nc(C(=O)/N=c2\\[nH]nc(C(C)(C)C)s2)cs1", "%", -8.83),
    ("CN1CC(c2ccccc2)CC12CCN(C(=O)c1cncc(Cl)c1)CC2 (stereo not given)", "%", -0.679),
    ("COc1ccc(CN2C[C@@H]3COC[C@]3(CN(C)C)C2)cc1", "%", 1.07),
]

Then there is this molecule:
Form: molecule = Cc1cnn(CC2CCCN2C(=O)c2ccc(C(N)=O)cn2)c1 (stereo not given) ; Percent Effect = 5.92

====

subject.of.test: Protein translocase subunit SecA (Escherichia coli (strain K12)) (UniProt P10408)
Sequence (P10408 whole entry): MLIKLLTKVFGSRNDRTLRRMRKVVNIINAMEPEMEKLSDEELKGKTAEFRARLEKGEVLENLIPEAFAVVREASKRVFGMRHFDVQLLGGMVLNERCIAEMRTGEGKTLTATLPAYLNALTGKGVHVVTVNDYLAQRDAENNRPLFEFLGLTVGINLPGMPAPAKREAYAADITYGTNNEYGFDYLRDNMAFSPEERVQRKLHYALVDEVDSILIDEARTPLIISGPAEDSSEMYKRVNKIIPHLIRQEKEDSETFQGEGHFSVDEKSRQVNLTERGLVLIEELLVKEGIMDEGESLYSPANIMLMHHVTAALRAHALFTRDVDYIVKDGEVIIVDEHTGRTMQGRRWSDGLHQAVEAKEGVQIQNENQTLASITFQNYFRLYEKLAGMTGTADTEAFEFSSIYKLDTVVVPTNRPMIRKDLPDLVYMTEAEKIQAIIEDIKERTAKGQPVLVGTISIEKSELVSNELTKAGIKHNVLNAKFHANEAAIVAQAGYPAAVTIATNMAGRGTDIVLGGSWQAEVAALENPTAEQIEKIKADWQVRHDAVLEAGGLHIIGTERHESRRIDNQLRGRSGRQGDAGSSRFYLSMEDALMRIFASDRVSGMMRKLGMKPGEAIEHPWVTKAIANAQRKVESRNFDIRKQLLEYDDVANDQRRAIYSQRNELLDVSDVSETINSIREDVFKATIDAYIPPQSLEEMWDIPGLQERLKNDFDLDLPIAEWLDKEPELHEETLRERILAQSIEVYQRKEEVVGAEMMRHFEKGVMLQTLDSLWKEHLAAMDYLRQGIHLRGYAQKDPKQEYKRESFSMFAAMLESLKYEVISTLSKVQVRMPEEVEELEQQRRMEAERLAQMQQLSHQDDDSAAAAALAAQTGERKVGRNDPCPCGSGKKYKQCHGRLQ
assay.procedure: Assay to Identify E. coli SecA ATPase Inhibitors
Type: functional
Design: scale not given: direction of the effect not stated beside the values
condition.info: 30 µM
Entries with a potency or affinity are not part of this list.
quantity.measured: Percent Effect (%)
Give the value, in units of %, as a plain number.

Form: compound = "CN1CCN(CCO)C(=O)C12CCN(Cc1ccsc1)CC2" ; Percent Effect = -2.2

Form: compound = "Cc1ccc(F)cc1S(=O)(=O)NCc1cccnc1N(C)C" ; Percent Effect = 2.25

====

Percent Effect for assorted compounds
subject.of.test: Proteasome subunit beta (Trypanosoma cruzi)
assay.procedure: Trypanosoma cruzi proteasome chymotrypsin-like activity (TcProtChymo) assay. Also: in the data most compounds retested in dose-response had high values.
Assay type: functional
Parameters: scale not given: direction of the effect not stated beside the values
condition.info: 9.37 µM
Give the value, in units of %, as a plain number.

Worked examples follow.
# compound, subject.of.test, Percent Effect [%]
rows = [
    ("CN(C)c1cc(C(=O)N2CCCN(Cc3cscn3)CC2)ccn1", "Proteasome subunit beta (Trypanosoma cruzi)", -4.39),
    ("Cc1ncc(-c2ccnc(N3CCCCCC3)n2)c(-c2cccnc2)n1", "Proteasome subunit beta (Trypanosoma cruzi)", 8.74),
    ("Cc1ccc(NC2CCN(C(=O)c3n[nH]c4ccccc34)CC2)nn1", "Proteasome subunit beta (Trypanosoma cruzi)", -2.29),
    ("CC(C)c1noc(CCC(=O)NCC2CCS(=O)(=O)C2)n1 (stereo not drawn)", "Proteasome subunit beta (Trypanosoma cruzi)", 12.3),
    ("CCc1nc(C2CCCN2C(=O)CCCn2cccn2)no1 (stereo not drawn)", "Proteasome subunit beta (Trypanosoma cruzi)", 8.25),
]

// Percent Effect (Proteasome subunit beta (Trypanosoma cruzi)) for "COc1cc(S(=O)(=O)N2CCc3ccc(F)cc32)cc(C(=O)O)c1OC" = 6.02

// Percent Effect (Proteasome subunit beta (Trypanosoma cruzi)) for Cc1ccn(-c2cccc(C(=O)N3CCCC(n4ccnc4C)C3)c2)n1 (stereo not drawn) = 8.42

// Percent Effect (Proteasome subunit beta (Trypanosoma cruzi)) for "Cc1cnc(N2CCC3(CCN(CC4CC4)C3=O)CC2)nc1" = 8.84

// Percent Effect (Proteasome subunit beta (Trypanosoma cruzi)) for "COCCN1C[C@@H]2CN(C(=O)[C@H]3CCCO3)C[C@@H]2C1=O" = 24.5

// Percent Effect (Proteasome subunit beta (Trypanosoma cruzi)) for "Cc1nn(C)c(N(C)C)c1CNCCCN(C)S(C)(=O)=O" = 10.2
